This listing pairs compounds with measured TGI.
Tested on: UACC-257 melanoma
experiment.notes: NCI tumour cell line growth inhibition, 48 h
reported.property: TGI

NC(=O)C12CC3CC(CC(F)(C3)C1)C2 ... > 100 µM
CCOc1ccc(NC(=O)CC#N)cc1 ... > 100 µM
COc1cc(NCc2ccc3nc(N)nc(N)c3c2C)cc(OC)c1OC (tested in a mixture with another compound) ... 48.7 µM
Cn1cc(NC(=O)Nc2cc(C(=O)Nc3cc(C(=O)Nc4ccc(S(=O)(=O)O)c5cc(S(=O)(=O)O)ccc45)n(C)c3)n(C)c2)cc1C(=O)Nc1cc(C(=O)Nc2ccc(S(=O)(=O)O)c3cc(S(=O)(=O)O)ccc23)n(C)c1 ... > 100 µM

###

System: KM12 colon
experiment.notes: NCI tumour cell line growth inhibition, 48 h; in the data active means GI50 below about 0.43 µM; inactive means the rest
Classes used: active, inactive

COc1cc(F)ccc1-c1ncnc(Nc2cccc(CS(C)(=N)=O)c2)n1 (centres undefined) ... inactive
COc1c(OC[C@H](O)CN2CCOCC2)ccc2c3n(c(=NC(=O)c4cccnc4C)nc12)CCN3 ... inactive
[Cl][Hg][c]1cc[c]([Hg][Cl])o1 ... inactive
O=C1OCC2=C1C(c1cccc(Br)c1)c1cc3c(cc1N2CCO)CCC3 (centres undefined) ... active
C=C(C)[C@@H]1CC[C@]2(C)[C@H](CC=C3[C@@H]4CC(C)(C)CC[C@]4(C(N)=O)CC[C@]32C)[C@@]1(C)CCC#N ... inactive
Cc1nn(-c2ccc(Cl)cc2)c2nc3c(nc12)C(=O)c1ccccc1-3 ... inactive
Nc1c(C(=O)Nc2ccncc2)sc2nc3c(cc12)CCCCCCCC3 ... inactive
COc1ccc2c(c1)C(=O)c1c-2c(N2CCN(C(=O)CNCCNCCO)CC2)nc2ccccc12 ... inactive
CCOC(=O)C(Cc1ccc(CCCC(=O)NCCC(=O)Nc2ccc3nc(C)sc3c2)cc1)C(=O)OCC ... inactive

###

Tested on: HCC-2998 colon
experiment.notes: NCI tumour cell line growth inhibition, 48 h
This listing pairs compounds with measured TGI.
reported.property: TGI (µM)

COc1cc(NS(C)(=O)=O)ccc1Nc1c2ccccc2nc2c1[nH]c1ccc(NC3OC(CO)C(O)C(O)C3O)cc12 (stereo not given) ... 0.809
C[C@@H]1CC[C@@H]2[C@@H]1[C@H](OC(=O)/C=C/c1ccccc1)[C@]1(C3CCCCC3)C[C@@H](OC(=O)CO)[C@@]2(C)O1 ... 3.92

###

System: 786-0 renal
experiment.notes: NCI tumour cell line growth inhibition, 48 h
reported.property: TGI

Cc1[nH]c2ccccc2c1C(=O)/C=C/c1ccccc1O ... > 100 µM
Cn1c(=O)n(C2(C)C[Se]C2)c2ccccc21 ... > 100 µM
N#CC(C(=O)C(=O)C(C#N)c1ccc(Br)cc1)c1ccc(Br)cc1 (centres undefined) ... 27 µM
O=[N+]([O-])c1ccc2c(c1)C1=C(CO2)Cc2ccccc2O1 ... 39.9 µM
O=C(c1ccccc1Br)C(F)(F)F ... > 100 µM
O=c1cc(-c2cccc3ccccc23)[nH]c2ncccc12 ... > 100 µM
[N-]=[N+]=N[C@H]1C[C@@H](CO)O[C@H]1n1cnc2c(N)ncnc21 ... > 100 µM
CN1CCOC(c2ccccc2)O1 (centres undefined) ... > 100 µM
O=Cc1[nH]c(=O)[nH]c(=O)c1C(=O)O ... > 100 µM
CC(=O)Oc1c2c(c(O)c3ccccc13)C(n1cnc3c(ncn3C3OC(CO)C4OC(C)(C)OC43)c1=N)CCC2 (centres undefined) ... 27.8 µM
O=C1OCC2=C1C(c1cccc(Br)c1)c1cc3c(cc1N2CCO)CCC3 (centres undefined) ... 6.22 µM
COC1(OC)C(N(C)C)=C(Cl)C(=O)/C1=C/C=O ... > 100 µM
COc1ccc(CC2NCCc3c2[nH]c2ccccc32)cc1 (centres undefined) ... > 100 µM
CCCC(=O)Nc1cc2c3c(c1)CCCN3CCC2 ... > 10 µM
O=C(N[C@@H](c1ccc(Cl)c(Cl)c1)C1CNC1)c1ccc2cnccc2c1 ... 2.34 µM
CN1CCN(C(=S)N2CCN(C)CC2)CC1 ... > 100 µM
C=C(C)[C@@H]1CC[C@]2(C)[C@H](CC=C3[C@@H]4CC(C)(C)CC[C@]4(C(N)=O)CC[C@]32C)[C@@]1(C)CCC#N ... 4.12 µM
CC#CCOC(=O)c1ccccc1OC(C)=O ... > 100 µM
COC(=O)C1=C(C(=O)NNc2ccccc2)N(c2cccnc2Cl)C(c2ccccc2)=CC1c1ccccc1 (centres undefined) ... > 100 µM
CC1CN(C(=O)CN2CCC(CCCCN(C)C)CC2)c2ccccc2NC1=O (centres undefined) ... > 100 µM
CSc1nc(Nc2cccc(C(F)(F)F)c2)c2c(N)nn(C)c2n1 ... > 100 µM
COc1cc2c3c(n(C)c(=O)c2cc1OC)-c1cc2c(cc1/C3=C\CN)OCO2 ... 17.3 µM
C/C=C(/C)C(=O)O[C@@H]1CCN2CC[C@H](COC(=O)/C(=C/C)CO)C12 (some centres undefined) ... > 100 µM
CCOc1ccc(NC(=O)CC#N)cc1 ... > 100 µM
